Assay: Tissue distribution of TET after a single i.t. administration in normal and LPS-treated mice
Details: BALB/c, mouse, liver, inhaled or intranasal, 15 mg/kg, Tmax, normal mice; 15 mg/kg i.t.
measurement.name: Tmax (h)
Numbers only, in h.

## Task Could you share which Tmax value was measured for `COc1ccc2cc1Oc1ccc(cc1)C[C@H]1c3cc(c(OC)cc3CCN1C)Oc1c(OC)c(OC)cc3c1[C@H](C2)N(C)CC3` ?
## Result 4

====

Experiment: Tissue distribution of TET after a single i.t. administration in normal and LPS-treated mice
Conditions: BALB/c, mouse, spleen, inhaled or intranasal, 15 mg/kg, AUC(0-∞), LPS-treated mice; 15 mg/kg i.t.
measurement.name: AUC(0-inf) (µg·h/mL)
Answers are plain numbers, in µg·h/mL.

## Task Could you share which AUC(0-inf) value was measured for COc1ccc2cc1Oc1ccc(cc1)C[C@H]1c3cc(c(OC)cc3CCN1C)Oc1c(OC)c(OC)cc3c1[C@H](C2)N(C)CC3 [TET, Tetrandrine] ?
## Result 16000

====

Test: Tissue distribution of TET after a single i.t. administration in normal and LPS-treated mice
Conditions: BALB/c, mouse, stomach, inhaled or intranasal, 15 mg/kg, AUC(0-∞), normal mice; 15 mg/kg i.t.
Procedure: The different tissue distribution characteristics of TET in normal and pneumonia model mice via i.t. delivery were investigated. Thirty BALB/c mice were randomly divided into ten groups (n = 3 for each group). […] Pharmacokinetic parameters including t1/2, AUC(0-t), AUC(0-∞), and MRT were calculated using WinNonlin 7.0 (Pharsight, CA) by the non-compartmental model. […] Blood clearance (CL) was calculated as the i.v. dose divided by AUCinf. […]
measurement.name: AUC(0-inf) (µg·h/mL)
Numbers only, in µg·h/mL.

## Task Could you share which AUC(0-inf) value was measured for COc1ccc2cc1Oc1ccc(cc1)C[C@H]1c3cc(c(OC)cc3CCN1C)Oc1c(OC)c(OC)cc3c1[C@H](C2)N(C)CC3 [TET, Tetrandrine] ?
## Result 1120

====

Test: Tissue distribution of TET after a single i.t. administration in normal and LPS-treated mice
Conditions: BALB/c, mouse, in vivo, inhaled or intranasal, 15 mg/kg, AUC(0-t), LPS-treated mice; 15 mg/kg i.t.; adipose
measurement.name: AUC(0-t) (µg·h/mL)
Answers are plain numbers, in µg·h/mL.

## Task Could you share which AUC(0-t) value was measured for `COc1ccc2cc1Oc1ccc(cc1)C[C@H]1c3cc(c(OC)cc3CCN1C)Oc1c(OC)c(OC)cc3c1[C@H](C2)N(C)CC3` ?
## Result 566

====

Assay: Tissue distribution of TET after a single i.t. administration in normal and LPS-treated mice
Conditions: BALB/c, mouse, stomach, inhaled or intranasal, 15 mg/kg, MRT, normal mice; 15 mg/kg i.t.
measurement.name: MRT (h)
One number for each entry, in h.

## Task Could you share which MRT value was measured for `COc1ccc2cc1Oc1ccc(cc1)C[C@H]1c3cc(c(OC)cc3CCN1C)Oc1c(OC)c(OC)cc3c1[C@H](C2)N(C)CC3` ?
## Result 70

====

Assay: Tissue distribution of TET after a single i.t. administration in normal and LPS-treated mice
Conditions: BALB/c, mouse, liver, inhaled or intranasal, 15 mg/kg, AUC(0-∞), normal mice; 15 mg/kg i.t.
measurement.name: AUC(0-inf) (µg·h/mL)
One number for each entry, in µg·h/mL.

## Task Could you share which AUC(0-inf) value was measured for COc1ccc2cc1Oc1ccc(cc1)C[C@H]1c3cc(c(OC)cc3CCN1C)Oc1c(OC)c(OC)cc3c1[C@H](C2)N(C)CC3 [TET, Tetrandrine] ?
## Result 5480
